The measured values listed here are drawn from patent US20100280082A1.

Assignment: determine reported hERG for the given compounds.
# TARGET ENTITY: UniProt:Q12809
# ASSAY REMARKS: hERG activity (process of Bridgland-Taylor et al.)
# Format: cell-based
Answers are plain numbers, in µM.

| COMPOUND | hERG, µM |
| --- | --- |
| Cc1cc(-c2noc(CN3CCNCC3)n2)cc2c1C(=O)N(Cc1ccc(OC(F)(F)F)cc1)C2 | 13 |
| Cc1cc(-c2noc(CN3CCNC[C@@H]3C)n2)cc2c1C(=O)N(Cc1ccc(Cl)cc1)C2 | 11 |
| Cc1cc(-c2noc(CN3CCNC[C@H]3C)n2)cc2c1C(=O)N(Cc1ccc(Cl)cc1)C2 | 11 |
| Cc1cc(-c2noc(CN3C[C@@H]4C[C@H]3CN4)n2)cc2c1C(=O)N(Cc1ccc(OC(F)(F)F)cc1)C2 | 17 |
| Cc1cc(-c2noc(CN3CCNCC3)n2)cc2c1C(=O)N(Cc1ccc(Cl)cc1)C2 | 8.9 |

Hey, quick one: what's hERG for each of these?
1. Cc1cc(-c2noc(C(C)N3CCNCC3)n2)cc2c1C(=O)N(Cc1ccc(OC(F)(F)F)cc1)C2 (stereo not shown)
2. O=C1c2c(Cl)cc(-c3noc(CN4CCNCC4)n3)cc2CN1Cc1ccc(OC(F)(F)F)cc1

1: 17; 2: 10

====

# TARGET ENTITY: hERG ion channel (Homo sapiens)
# Sequence (Q12809 whole entry): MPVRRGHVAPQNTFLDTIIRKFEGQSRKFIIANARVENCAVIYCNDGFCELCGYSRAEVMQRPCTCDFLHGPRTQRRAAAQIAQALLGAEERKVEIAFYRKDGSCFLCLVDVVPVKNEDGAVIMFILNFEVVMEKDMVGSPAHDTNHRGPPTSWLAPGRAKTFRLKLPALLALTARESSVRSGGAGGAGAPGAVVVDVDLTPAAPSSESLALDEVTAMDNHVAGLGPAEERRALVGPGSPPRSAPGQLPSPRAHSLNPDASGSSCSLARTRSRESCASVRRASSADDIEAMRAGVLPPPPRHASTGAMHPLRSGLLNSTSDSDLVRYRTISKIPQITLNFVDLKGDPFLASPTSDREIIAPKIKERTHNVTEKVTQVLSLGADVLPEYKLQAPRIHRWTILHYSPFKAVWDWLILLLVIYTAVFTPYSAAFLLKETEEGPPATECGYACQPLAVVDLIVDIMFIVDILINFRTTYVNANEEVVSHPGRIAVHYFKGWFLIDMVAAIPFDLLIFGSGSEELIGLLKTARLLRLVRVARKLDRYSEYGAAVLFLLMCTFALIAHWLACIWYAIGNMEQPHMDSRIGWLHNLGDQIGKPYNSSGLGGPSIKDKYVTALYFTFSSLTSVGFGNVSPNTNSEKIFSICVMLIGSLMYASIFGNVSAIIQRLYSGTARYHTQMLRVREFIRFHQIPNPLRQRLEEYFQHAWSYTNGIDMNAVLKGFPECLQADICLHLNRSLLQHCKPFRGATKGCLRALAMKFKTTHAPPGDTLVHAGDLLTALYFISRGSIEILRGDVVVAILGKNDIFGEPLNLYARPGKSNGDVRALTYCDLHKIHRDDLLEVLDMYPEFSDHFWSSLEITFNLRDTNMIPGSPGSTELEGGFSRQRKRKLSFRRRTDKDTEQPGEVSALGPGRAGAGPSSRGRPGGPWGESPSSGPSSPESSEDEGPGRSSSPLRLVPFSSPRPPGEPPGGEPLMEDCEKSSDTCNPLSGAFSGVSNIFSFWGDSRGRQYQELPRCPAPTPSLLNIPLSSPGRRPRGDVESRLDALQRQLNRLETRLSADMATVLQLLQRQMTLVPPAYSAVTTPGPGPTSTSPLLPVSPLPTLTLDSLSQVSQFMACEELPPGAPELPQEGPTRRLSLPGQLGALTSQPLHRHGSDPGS
# ASSAY REMARKS: hERG activity (process of Bridgland-Taylor et al.)
# Type: cell-based
RECORDED ENDPOINT: hERG (µM)
One number for each entry, in µM.

A selection of reference data follows.
| COMPOUND | hERG [µM] |
| --- | --- |
| Cc1cc(-c2noc(CN3C[C@@H]4C[C@H]3CN4)n2)cc2c1C(=O)N([C@@H](C)c1ccc(Cl)cc1)C2 | 12 |
| Cc1cc(-c2noc(C(C)N3CCNCC3)n2)cc2c1C(=O)N([C@@H](C)c1ccc(Cl)cc1)C2 (stereo partly shown) | 11 |
| O=C1c2c(Cl)cc(-c3noc(CN4CCNCC4)n3)cc2CN1Cc1ccc(Cl)cc1 | 14 |
| Cc1cc(-c2noc(C(C)N3CCNCC3)n2)cc2c1C(=O)N(Cc1ccc(Cl)cc1)C2 (stereo not shown) | 13 |
| Cc1cc(-c2noc(CN3CCNC(C)C3)n2)cc2c1C(=O)N(Cc1ccc(Cl)cc1)C2 (stereo not shown) | 11 |
| Cc1cc(-c2noc(CN3CCNCC3)n2)cc2c1C(=O)N([C@@H](C)c1ccc(Cl)cc1)C2 | 14 |

Entry under review: `CC1(C)CN(Cc2nc(-c3cc(Cl)c4c(c3)CN(Cc3ccc(OC(F)(F)F)cc3)C4=O)no2)CCN1` . Reported hERG? 13
